- procedure_text: yeast display, Sf9 membrane polyspecificity reagent, FACS + sequencing; frameworks hold sequencing errors

- primary_sequence: "QVQLVESGGGLVQAGGSLRLSCAASGIIIITYAMGWYRQAPGKERELVAVISFSGGGTYADSVKGRFTISRDNAKNTVYLQMNSLKPEVTAVYYCAKYWLSALTLEDDYCGQGTQVTVSS"
  polyreactivity (PSR sort gate): "low polyreactivity"
- primary_sequence: "QVQLVESGGGLVQAGGSLRLSFAASGSTFGLNAMGWYRQAPGKERELVAAITRSDITNYADSVKGRFTISRDNAKNTVYLQMNSLKPEDTAVYYCNKTPDRHRRYFGYGYWGQGTQVTVSS"
  polyreactivity (PSR sort gate): "low polyreactivity"
- primary_sequence: "QDQLVDSGGGLVKAGGNLRLSCPASGSTFDYNTMGWNIQEPGKESEMVAVITASGGSTYYADSVKGRFTISRDNAKNTVYLQMNSLKPEDTAVYYCAKDLYVSYYIGTCYYYWGQGTQVTVSS"
  polyreactivity (PSR sort gate): "low polyreactivity"

###

- procedure_text: yeast display, Sf9 membrane polyspecificity reagent, FACS + sequencing; frameworks hold sequencing errors
reported_property: polyreactivity (PSR sort gate)

- primary_sequence: "QVQLVETGGGLVQAGGSLLLSCAASGFTLLSYAMGWYRQAPGKERELVAAISESGVSTSYADSVKGRFTISRDNAKNTVYLQMKSLKPEDTAFYYCNKSDFWVVIYDSWGQGTQVTVSS"
  reported_property: "polyreactivity (PSR sort gate)"
  experimental_value: "low polyreactivity"
- primary_sequence: "QVQLVESGGRLVQAGGSLRLSCAASGIFYTYDMGRYRQAPGKERELVATINSGGSTNYADSVKGRFTISRDNAKNTVYLQMNSLKPEDTAVYYCAAAEDVYSERPRYDYWGQGTQVTVSS"
  reported_property: "polyreactivity (PSR sort gate)"
  experimental_value: "low polyreactivity"
- primary_sequence: "QVQLQESGGGLVQAGGDLRLSCAASGNIFRDYIMGWYRQAPGKEREFVAGIDRGANTNYADSVKGRFTISRDNAKNTVYLQMNSLKQEDTAVYYCAVHTAIVPDFIYWGQGTQVTVSS"
  reported_property: "polyreactivity (PSR sort gate)"
  experimental_value: "low polyreactivity"
- primary_sequence: "QVQLVESGGGLVQAGGSLRLSCAASGRIYGLYAMGWYRQAPGKERELVAAISEGGGSTNYADSEKGRFTISRDNAKNTFYLQMNSLKPDDTAVYYCAATYRTGVRRYYSWGQGTQVTVSS"
  reported_property: "polyreactivity (PSR sort gate)"
  experimental_value: "low polyreactivity"
- primary_sequence: "QVQLVESGGGLVQAGGSLRLSCAASGFIFRYYTMGWYRQAPGKERELVATITSGGSTYYADSVKGRFTISRDNAKNTVYVQMNSLKPEDTAVYYCAKVRDVLWRFNYWGQGTQVTVSS"
  reported_property: "polyreactivity (PSR sort gate)"
  experimental_value: "high polyreactivity"
- primary_sequence: "QVQLVESGGGLVQAGGSLRLSCAASGSIFLLYYMGWYRQAPGKERELVAANTWSGGSTYYADSVKGRFTISRDNAKNSVYLQMNSLKPEDTAVYYFAADEPYPTAYEYWGQGTQVTLSS"
  reported_property: "polyreactivity (PSR sort gate)"
  experimental_value: "low polyreactivity"
- primary_sequence: "QVQLVESGGGLVQAGGSLRLSCAASGFIFGYYAMGGYRQAPGKERELVATIRQTGGSTRYADSVKGRFTISRDNAKNTVYLQMNSLIPEDTAVYYCAAYKWPSWRTWPYDSWGQGPQVTVSS"
  reported_property: "polyreactivity (PSR sort gate)"
  experimental_value: "high polyreactivity"
- primary_sequence: "QVQLVESGGGLVQAGGSLRLSCAASGSIFNLYAMGWYRQAPGKERELVAGIRWSGGRTYYADSVKGRFTISRDNAKNTVYLQMNSLKPEDTAVYYCNAVGYLSWWNDYDYWGQGTQVTVSS"
  reported_property: "polyreactivity (PSR sort gate)"
  experimental_value: "high polyreactivity"
- primary_sequence: "QVQLVESGGSLVQAGGSLRLSCAASGSTLYYNAMGWYRQAPGKERELVAAISWSGGSTYYADSVKGRFTISRDNAKNTVYLQMNSLKPEDTSVYYCAADQSTVLDVGSWGQGTQVTVSS"
  reported_property: "polyreactivity (PSR sort gate)"
  experimental_value: "low polyreactivity"
- primary_sequence: "QVQLQESGGGLVQAGGSLRLSCAASGTISYAPHMGWYRHAPGKERELDAGITIGGTTYYADSVKGRFTISRDYAKNTVDLQMNRLSPGDTAVYYCAAHSEQYTPFYYWGQGTQVTVSS"
  reported_property: "polyreactivity (PSR sort gate)"
  experimental_value: "low polyreactivity"
- primary_sequence: "QVQLVESGGGLVQAGGSLRISCAASGSTFDGNAMGWYRQAPGKERELVAAISDGDSTTNADSVKGRFTISRDNAKNTVYLQMNSLKPEDTAVYYCAARSPGDQRLGRHYYGEFDYWGQGTQVTVSS"
  reported_property: "polyreactivity (PSR sort gate)"
  experimental_value: "low polyreactivity"
- primary_sequence: "QVQLVESGGGLVQAGGSLRLSCAASGSIFSSYAMGWYRQAPGKERELVAAISQNGGSTDYADSVKGRFTISRDKAKNTVYLQMNSLKPEDTAVYYCNAYSVYVRGEYWGQGTQVTVSS"
  reported_property: "polyreactivity (PSR sort gate)"
  experimental_value: "high polyreactivity"
- primary_sequence: "QVQLVESGGGLVQAGGSLRLSCAASGFTFQLYAMGWYRQAPGKERELVAAISSSGTSTYYADSVKGRFTISRDNAKNTVFLQMNSLKPEDTAVYYCAARGPYTYRRYGYWGQGTQVTVSS"
  reported_property: "polyreactivity (PSR sort gate)"
  experimental_value: "high polyreactivity"
- primary_sequence: "QVQLVESGGGLVQAGGSLRLSCAASGIILKFYAMGWYRQAPGKERELVAAISRGGRTNYADSVKGRFTISRDNANNTVYLQMNSLKPEDTAVYYCAAKSYTYYRNYDYWGQGTQVTVSA"
  reported_property: "polyreactivity (PSR sort gate)"
  experimental_value: "high polyreactivity"
- primary_sequence: "QLQLVESGGGLVQAGGSLRLSCAASGITFGANTMGWYRQAPGTERELVAAITISGGITHYADSVKGRFTISRDNAKNTVYLQMNSLKPEDTAVYYCAAGAYWRLYPYRQRNGGRMYYWGQGTQVTVSS"
  reported_property: "polyreactivity (PSR sort gate)"
  experimental_value: "low polyreactivity"
- primary_sequence: "QVQLVESGGGLVQAGGSLRLSCAASGSTFSHYAMVWYRQAPGKERELVATITGTGVRTYYADSVKGRFTISRDNAKNTVYLQMNSLKPEDTAVSYCAVPPSKRGAQAQPWMDYWGQGTQVTVSS"
  reported_property: "polyreactivity (PSR sort gate)"
  experimental_value: "low polyreactivity"
- primary_sequence: "QVQLVESGGGLVQAGGSLRLSCAASGRTFFQYGMGWYRQAPGKERELVASITRSGGRTNYADSVKGRFTISRDNAKNTVYLQMNSLKPEDTAVYYCAAYYYGSAAYGYGYNYWGQGTQVTVSS"
  reported_property: "polyreactivity (PSR sort gate)"
  experimental_value: "high polyreactivity"
- primary_sequence: "QVQLVESGGGLVQAGGSLRLSCAASGSTFWWYAMGWYRQAPGKERELVATISWSTGSTYYADSVKGRFTISRDNAKNTVYLQMNSLKPEDTAVYYCNARIFYLFPGNSWSSSDYDYWGQGTQVTVSS"
  reported_property: "polyreactivity (PSR sort gate)"
  experimental_value: "low polyreactivity"
- primary_sequence: "QVQLVESGGGLVQAGGSLRLTCAASGSTFYSYTMGWYRQAPGKERELVAVISSSGGRTYYADSVKGRFTISRDNAKNTVYFQMNSLKPEDTAVYYCAASQRGYFDYRLWSFRSDSWGQGTQVTVSS"
  reported_property: "polyreactivity (PSR sort gate)"
  experimental_value: "high polyreactivity"
- primary_sequence: "QVQLVESGGGLVQAGGSLRLSCAASGRTFVWYAMGWYRHAPGKERELVAAISRSGGSTYYADSVKGRFTISRDNAKNTVYLQMNSLKPEDTAVYYCNAQWYVYDYYEFDYWGQGTQVTVSS"
  reported_property: "polyreactivity (PSR sort gate)"
  experimental_value: "high polyreactivity"
- primary_sequence: "QVQLVESGGGLVQAGGSLRLSCAASGSIFVIYAMGWYRQAPGKERELVAAITDSATTNYADSVKGRFTISRDNAKNTVYLQMNSLKPEDTAVYYCAAEYSSYPTAWSTYEFDYWGQGTQVTVSS"
  reported_property: "polyreactivity (PSR sort gate)"
  experimental_value: "low polyreactivity"
